# MEASURED_TARGET: human TLR9 (Homo sapiens (Human), UniProt Q9NR96)
# Sequence (Q9NR96 26-1032): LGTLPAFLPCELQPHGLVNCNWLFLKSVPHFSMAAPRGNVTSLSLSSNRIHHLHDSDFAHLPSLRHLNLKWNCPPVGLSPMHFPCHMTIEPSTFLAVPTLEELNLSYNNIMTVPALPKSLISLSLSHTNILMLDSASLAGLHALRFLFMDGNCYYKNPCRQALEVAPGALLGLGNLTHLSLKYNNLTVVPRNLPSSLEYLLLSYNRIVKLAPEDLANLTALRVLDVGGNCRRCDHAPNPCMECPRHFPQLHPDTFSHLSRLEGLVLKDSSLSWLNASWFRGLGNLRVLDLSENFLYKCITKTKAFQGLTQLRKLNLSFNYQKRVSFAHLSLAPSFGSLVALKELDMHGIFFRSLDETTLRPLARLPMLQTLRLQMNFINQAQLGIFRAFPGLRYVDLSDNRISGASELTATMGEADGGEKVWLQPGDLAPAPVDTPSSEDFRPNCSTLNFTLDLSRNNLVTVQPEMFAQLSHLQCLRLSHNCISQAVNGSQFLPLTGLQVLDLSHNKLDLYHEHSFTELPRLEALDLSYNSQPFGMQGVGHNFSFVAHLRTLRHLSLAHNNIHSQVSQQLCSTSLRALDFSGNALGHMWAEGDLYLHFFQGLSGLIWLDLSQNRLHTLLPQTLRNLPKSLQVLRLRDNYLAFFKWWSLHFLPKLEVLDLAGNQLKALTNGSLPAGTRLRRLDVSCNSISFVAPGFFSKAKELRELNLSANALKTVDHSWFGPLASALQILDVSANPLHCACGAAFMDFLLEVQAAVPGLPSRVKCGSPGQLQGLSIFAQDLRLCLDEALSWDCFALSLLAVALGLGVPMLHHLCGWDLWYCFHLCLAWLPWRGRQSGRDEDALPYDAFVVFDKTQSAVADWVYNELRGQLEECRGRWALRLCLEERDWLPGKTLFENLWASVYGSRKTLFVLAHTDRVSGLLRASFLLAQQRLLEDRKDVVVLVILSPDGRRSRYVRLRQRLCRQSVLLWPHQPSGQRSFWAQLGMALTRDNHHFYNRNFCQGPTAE
# ASSAY_EXPLANATION: HEK-Blue hTLR9 antagonism assay (SEAP reporter), agonist ODN 2006
# Type: cell-based
# RUN_PARAMETERS: HEK-Blue hTLR9 cells; ODN 2006 (TLR9 agonist) at approx. 3×EC50; 18 h; exact values 8-point, approximate (~ or <) 4-point dilutions; read-out: IC50 (μM) with ODN2006
PROPERTY_NAME: IC50

// below: answered compounds
>>> print(df.to_string())
                                   compound  property_name   result
0  O=Cc1cc(C(=O)Nc2ncc(-c3cccc(N4CCCC4)c3)s2)cc(F)c1O [Compound 12]           IC50   0.2 µM
1  O=Cc1cc(NC(=O)c2ncc(-c3ccccc3)s2)cc(F)c1O [Compound 10]           IC50    ~1 µM
2  O=Cc1cc(C(=O)Nc2cnc(N3CCCCC3)s2)cc(F)c1O [Compound 7]           IC50  > 33 µM

Okay, next one:
Record O=C(c1cc(F)c(O)c(/C=N/N2CCOCC2)c1)N1CCC(c2ccc(N3CCCC3)cc2)CC1 [Compound 164] , field IC50: 0.26 µM
